biological target: AP-2 complex subunit beta (Homo sapiens) (UniProt P63010); test: inhibitors of arrestin peptide binding to AP2, pilot screen, biochemical, validation set, GST-AP2 beads, flow cytometry (AID 504541); details: FITC arrestin peptide, at 10 µM, hits give high values, AP2 beta2 appendage fragment, R879A mutant;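 also: AP2 carries R879A mutation and is captured from E. coli lysate; bead-bound FITC arrestin peptide fluorescence measuring arrestin peptide binding to AP2; 0% = DMSO wells and 100% = excess unlabeled arrestin peptide control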
Sequence (P63010 whole entry, looked up, the tested form may be a part, one chain of several): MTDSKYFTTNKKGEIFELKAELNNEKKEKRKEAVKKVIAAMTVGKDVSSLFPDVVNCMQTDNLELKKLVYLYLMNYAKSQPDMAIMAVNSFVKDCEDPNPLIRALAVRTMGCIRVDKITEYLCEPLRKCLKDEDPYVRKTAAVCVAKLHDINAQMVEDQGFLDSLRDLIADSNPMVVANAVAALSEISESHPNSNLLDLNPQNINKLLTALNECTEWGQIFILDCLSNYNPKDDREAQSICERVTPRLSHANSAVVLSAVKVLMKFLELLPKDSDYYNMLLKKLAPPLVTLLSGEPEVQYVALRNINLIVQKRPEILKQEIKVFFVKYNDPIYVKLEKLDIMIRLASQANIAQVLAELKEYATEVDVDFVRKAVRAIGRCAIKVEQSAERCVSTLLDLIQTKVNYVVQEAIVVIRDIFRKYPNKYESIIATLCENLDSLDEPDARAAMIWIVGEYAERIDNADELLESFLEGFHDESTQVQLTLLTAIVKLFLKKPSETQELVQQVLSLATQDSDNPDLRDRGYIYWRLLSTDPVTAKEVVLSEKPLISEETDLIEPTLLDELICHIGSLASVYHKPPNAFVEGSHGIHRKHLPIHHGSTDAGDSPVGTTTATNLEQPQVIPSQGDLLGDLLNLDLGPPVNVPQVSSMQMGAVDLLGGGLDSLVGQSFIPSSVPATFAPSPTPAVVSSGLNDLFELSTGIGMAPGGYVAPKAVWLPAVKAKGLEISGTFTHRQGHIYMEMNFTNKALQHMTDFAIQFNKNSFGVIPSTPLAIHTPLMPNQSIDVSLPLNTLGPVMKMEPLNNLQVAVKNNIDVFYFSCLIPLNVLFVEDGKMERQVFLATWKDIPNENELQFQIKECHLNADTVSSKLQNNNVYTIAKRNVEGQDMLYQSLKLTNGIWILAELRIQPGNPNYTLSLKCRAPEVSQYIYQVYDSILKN
Peptide text beside a SMILES is read from it. * marks the point of attachment. Boc = CC(C)(C)OC(=O)*
Please go through the items and note down their inhibition.
Express it in %; write the number only.

Any idea what its inhibition is? The molecule is CN(C)c1ccc(O)c2c1CC1CC3[C@@H](N(C)C)C(=O)C(C(N)=O)=C(O)[C@]3(O)C(=O)C1=C2O (some centres not stated)
6.63

Any idea what its inhibition is? The molecule is `C/C(=N/N1CCN(Cc2cccc3ccccc23)CC1)c1cccnc1`
6.25

Any idea what its inhibition is? The molecule is `COc1c2occc2c(OC)c2c(=O)cc(C)oc12`
-4.24

Any idea what its inhibition is? The molecule is `COc1ccc2[nH]c(C)c(CN3CCC(C)CC3)c(=O)c2c1`
-1.75

Any idea what its inhibition is? The molecule is CC(=O)OCC(=O)C1=CCC2C3CCC4=CC(=O)C=CC4(C)C3(F)C(OC(C)=O)CC12C (configuration not stated)
-3.56

Any idea what its inhibition is? The molecule is `O=P(c1ccccc1)(c1ccccc1)c1nc(-c2ccc(Cl)cc2)oc1N1CCOCC1`
7.65

Any idea what its inhibition is? The molecule is CC(C)CC(NC(=O)C1CCCN1C(=O)OC(C)(C)C)C(=O)NCC(N)=O (stereo not drawn) (Boc-Pro-Leu-Gly-NH2; configuration not given here)
-1.69

Any idea what its inhibition is? The molecule is CO[C@@H]1O[C@@H]2COC(c3ccccc3)O[C@@H]2[C@@H](OC)[C@@H]1O (some centres not stated)
15.1

Any idea what its inhibition is? The molecule is `Cc1ccc(OCCSc2ncccn2)c(C)c1`
-11.2

Any idea what its inhibition is? The molecule is `Nc1ccc(S(=O)(=O)c2ccc(N)cc2)cc1`
2.16

Any idea what its inhibition is? The molecule is `CCc1cc2c(=O)c(-c3nc4ccccc4n3C)coc2c(CN2CCN(C)CC2)c1O`
2.16

Any idea what its inhibition is? The molecule is `CC(=O)O[C@H]1CC[C@H]2[C@@H]3CCc4cc(O)ccc4[C@H]3CC[C@]12C`
6.38

Any idea what its inhibition is? The molecule is `CCOC(=O)Cc1c(C)nc(N)[nH]c1=O`
-8.2

Any idea what its inhibition is? The molecule is `CC(C)(C)c1csc(N/N=C/c2cccnc2)n1`
5.38

Any idea what its inhibition is? The molecule is O=C(CCCC(=O)OCC1CCCO1)OCC1CCCO1 (configuration not stated)
-6.03

Any idea what its inhibition is? The molecule is Nc1cccc2c1nnn2C1OC(CO)C(O)C(O)C1O (configuration not stated)
-6.04

Any idea what its inhibition is? The molecule is `O=C(NCCN1CCCCC1)c1c(O)c2ccccc2[nH]c1=O`
5.65

Any idea what its inhibition is? The molecule is COc1cc2nc(N3CCN(C(=O)C4COc5ccccc5O4)CC3)nc(N)c2cc1OC (configuration not stated)
26.5

Any idea what its inhibition is? The molecule is CCOC(=O)C1=C(N)Oc2c(oc(CO)cc2=O)C1c1ccc(F)c(F)c1 (configuration not stated)
42.8

Any idea what its inhibition is? The molecule is COc1ccc(N2C(=O)C3CCCN3C2=O)cc1 (configuration not stated)
9.15

Any idea what its inhibition is? The molecule is `CC(=O)OCC(=O)[C@@]1(OC(C)=O)[C@@H](C)C[C@H]2[C@@H]3C[C@H](F)C4=CC(=O)C=C[C@]4(C)[C@@]3(F)[C@@H](O)C[C@@]21C`
1.66

Any idea what its inhibition is? The molecule is `O=c1[nH]cnc2c1ncn2[C@@H]1O[C@H](CO)[C@@H](O)[C@H]1O`
-10.3

The values you see were collected from PubChem BioAssay.
